experiment: Studies 1 and 2, steady‐state plasma PK of filgotinib and its major metabolite; assay type: in vivo, human; conditions: human, plasma, oral, 30 mg, AUCtau of filgotinib, steady state, 30 mg once daily, study 2; arithmetic mean (coefficient of variation)
Endpoint: AUC (µg·h/mL)
Write the answer as a number in µg·h/mL, unit excluded.

O=C(Nc1nc2cccc(-c3ccc(CN4CCS(=O)(=O)CC4)cc3)n2n1)C1CC1 has a reported AUC of 1.34

====

experiment: Studies 1 and 2, steady‐state plasma PK of filgotinib and its major metabolite; type: in vivo, human; conditions: human, plasma, oral, 100 mg, AUCtau of filgotinib, steady state, 100 mg twice daily, study 1; arithmetic mean (coefficient of variation)
Endpoint: AUC (ng·h/mL)
Write the answer as a number in ng·h/mL, unit excluded.

O=C(Nc1nc2cccc(-c3ccc(CN4CCS(=O)(=O)CC4)cc3)n2n1)C1CC1 has a reported AUC of 2470

====

assay: Studies 1 and 2, steady‐state plasma PK of filgotinib and its major metabolite; assay type: in vivo, human; settings: human, plasma, oral, 150 mg
Endpoint: Tmax (h)
Write the answer as a number in h, unit excluded.

O=C(Nc1nc2cccc(-c3ccc(CN4CCS(=O)(=O)CC4)cc3)n2n1)C1CC1 has a reported Tmax of 1
